Tgt: aggregated beta amyloid in AD tissue (Homo sapiens)
Sequence (P05067 672-711 limits assumed): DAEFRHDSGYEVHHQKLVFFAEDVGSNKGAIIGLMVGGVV
Method notes: Competitive radioligand binding to pathological aggregated beta amyloid in AD tissue (Assay 2), displacement of [^3H]-105
Test conditions: Aβ-rich AD frontal cortex homogenate, [^3H]-105, Kd 11.0 nM
pKi: −log10 of the molar value.
// pKi lookup, one value per entry

- Chemical structure: "COC[C@H]1CN(c2ncc(/C=C/c3ccc(-n4ccnc4)nc3)cn2)CCN1c1ccnc(F)n1"
  Tgt: "aggregated beta amyloid in AD tissue (Homo sapiens)"
  Result: "≤ 4.92"

Find the measured pKi: item "COC[C@H]1CN(c2ncc(C#Cc3ccc(-n4ccnc4)nc3)cn2)CCN1c1ccnc(F)n1" , target or system aggregated beta amyloid in AD tissue (Homo sapiens).
≤ 5.92

Find the measured pKi: item "COC[C@H]1CN(c2cnc(C#Cc3ccc(-n4ccnc4)nc3)c(F)n2)CCN1c1ncccn1" , target or system aggregated beta amyloid in AD tissue (Homo sapiens).
7.49

Find the measured pKi: item "COC[C@H]1CN(c2cc(F)ncn2)CCN1c1ncc(/C=C/c2ccc(-n3ccnc3)nc2)cn1" , target or system aggregated beta amyloid in AD tissue (Homo sapiens).
≤ 4.92

====

Tgt: triton-extracted alpha-synuclein from PD Tissue (Homo sapiens, UniProt P37840)
Construct: tissue Analytic Biological Services Inc; host or cells: human PD temporal cortex grey matter, Triton X-100 insoluble pellet
Method notes: Alpha-synuclein tissue homogenate binding assay (Assay 1), displacement of [^3H]-1000
Test conditions: read-out: α-synuclein Tissue Ki (Assay 1)
Experimental: Frozen human brain tissues from PD patients were purchased from Analytic Biological Services Inc. The samples were post-mortem tissues from donors with clinical diagnosis of late stage of PD. Alpha-synuclein, tau and amyloid burden was determined through a combination of immunohistochemistry on frozen thin coronal sections, as well as alpha Lisa-based quantification of protein levels in a detergent insoluble protein fraction. […]
pKi: −log10 of the molar value.
Property measured: pKi

- Compound: "Cn1cc(-c2ncc(C#Cc3cnc(N4CCN(c5ncccn5)[C@@H](COCCOCCF)C4)nc3)cn2)cn1 [Example 52]"
  Tgt: "triton-extracted alpha-synuclein from PD Tissue (Homo sapiens, UniProt P37840)"
  pKi: 8.85
- Compound: "Cn1cc(-c2ncc(C#Cc3cnc(N4CCN(c5ncncn5)[C@@H](COCF)C4)nc3)cn2)cn1 [Example 95]"
  Tgt: "triton-extracted alpha-synuclein from PD Tissue (Homo sapiens, UniProt P37840)"
  pKi: 8.89
- Compound: "OC[C@H]1CN(c2ncc(C#Cc3ccc(-n4ccnc4)nc3)cn2)CCN1c1ncccn1 [Example 10]"
  Tgt: "triton-extracted alpha-synuclein from PD Tissue (Homo sapiens, UniProt P37840)"
  pKi: 8.31
- Compound: "Cn1cc(-c2ncc(/C=C/c3cnc(N4CCN(c5ncncn5)[C@@H](COCCF)C4)nc3)cn2)cn1 [Example 43]"
  Tgt: "triton-extracted alpha-synuclein from PD Tissue (Homo sapiens, UniProt P37840)"
  pKi: 8.91
- Compound: "COC[C@H]1CN(c2ncc(C#Cc3ccc(-n4ccnc4)nc3)cn2)CCN1c1cc(F)ncn1 [Example 12]"
  Tgt: "triton-extracted alpha-synuclein from PD Tissue (Homo sapiens, UniProt P37840)"
  pKi: 8.96

A: COC[C@H]1CN(c2cc3cnccn3c2)CCN1c1ncc(/C=C/c2ccc(-n3cccn3)nc2)cn1 [Example 21]
B: Cc1cn(-c2ccc(/C=C/c3cnc(N4CCN(c5ncccn5)[C@@H](COCCF)C4)nc3)cn2)cn1 [Example 40]
C: Cn1ccc(-c2ncc(C#Cc3cnc(N4CCN(c5ncc(F)cn5)[C@@H](COCCF)C4)nc3)cn2)n1 [Example 97]
Order the entries by their reported pKi, beginning at the minimum. // format: requested-order list of labels
C, A, B
(C: 8.37, A: 8.89, B: 9.38)

P: COC[C@H]1CN(c2ncc(/C=C/c3ccc(-n4ccnc4)nc3)cn2)CCN1c1ncc(CO)cn1 [Example 7]
Q: OC[C@H]1CN(c2ccc(F)nc2)CCN1c1ncc(/C=C/c2ccc(-n3ccnc3)nc2)cn1 [Example 33]
Hi, I'm comparing two records. Which one has the lower pKi, P or Q ? Answer = label.
Q
